So I've got a bunch of substances here, and I need their IC50 values.
Target: human PAC1 (Homo sapiens)
Sequence (P41586 21-468): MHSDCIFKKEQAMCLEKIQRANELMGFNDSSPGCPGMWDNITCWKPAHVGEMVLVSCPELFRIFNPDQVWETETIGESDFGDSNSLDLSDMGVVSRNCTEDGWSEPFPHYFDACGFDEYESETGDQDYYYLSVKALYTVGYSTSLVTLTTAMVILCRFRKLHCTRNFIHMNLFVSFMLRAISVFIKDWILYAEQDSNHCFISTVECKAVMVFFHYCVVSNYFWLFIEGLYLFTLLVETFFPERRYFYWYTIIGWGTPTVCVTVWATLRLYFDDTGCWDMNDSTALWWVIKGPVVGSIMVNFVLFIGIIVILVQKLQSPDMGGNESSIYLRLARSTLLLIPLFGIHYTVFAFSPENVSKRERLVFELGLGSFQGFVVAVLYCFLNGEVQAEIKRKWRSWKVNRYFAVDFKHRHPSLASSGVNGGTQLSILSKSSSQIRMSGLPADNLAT
Assay: Filter binding assay, membranes of cells transiently transfected with human PAC1, 125I-labeled PACAP-27 tracer (Table 2)
Set-up: expressed in transfected cells
Conditions: read-out: Human PAC1 Receptor Binding
Where no end group is shown, it is not given here. The star is where a group is joined. Hexanoyl = CCCCCC(=O)*
Respond with the bare value in nM.

Look at this substance and give its reported IC50. Hexanoyl-HSDAVFTDNYTRLRKQVAAKKYLQWIKNKRYGGPSSGAPPPS [Agonist P117]
243

Please do the same for Hexanoyl-HSDAVFTDNYTRLLAKLALQKYLQSIKNKRYGGPSSGAPPPC [Agonist P164] as well.
9370

Please do the same for Hexanoyl-HSDAVFTDNYTRLRKQVAAKAYLQSIKNKRYGGPSSGAPPPS [Agonist P184] as well.
339

Please do the same for Hexanoyl-HSDAVFTDNYTRLRKQVAAKRYLQSIKNKRYGGPSSGAPPPS [Agonist P182] as well.
429

Please do the same for Hexanoyl-HSDAVFTDNYTRLRKQVAAKKYLQSLKNKRYGGPSSGAPPPS [Agonist P107] as well.
225

Please do the same for Hexanoyl-HSDAVFTDNYTRLRAQVAAQKYLQSIKNKRYGGPSSGAPPPS [Agonist P138] as well.
1110

====

Biological target: rat VPAC1 receptor (Rattus norvegicus, UniProt P30083)
Sequence (P30083 31-459): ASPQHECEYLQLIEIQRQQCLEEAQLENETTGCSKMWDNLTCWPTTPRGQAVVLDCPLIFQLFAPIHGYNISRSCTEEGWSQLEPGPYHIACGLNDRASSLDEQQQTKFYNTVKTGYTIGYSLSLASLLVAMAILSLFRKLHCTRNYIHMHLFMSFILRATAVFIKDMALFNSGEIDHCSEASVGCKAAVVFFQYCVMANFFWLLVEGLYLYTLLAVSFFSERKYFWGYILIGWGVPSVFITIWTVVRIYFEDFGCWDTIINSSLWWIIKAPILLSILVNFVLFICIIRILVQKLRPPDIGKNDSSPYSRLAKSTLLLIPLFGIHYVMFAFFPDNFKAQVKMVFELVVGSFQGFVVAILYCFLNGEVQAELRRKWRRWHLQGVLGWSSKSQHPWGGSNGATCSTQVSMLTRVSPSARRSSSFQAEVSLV
Experiment: Competition binding on recombinant rat VPAC1 receptor expressed in CHO cells, 125I-VIP tracer
Parameters: expressed in transfected cells; host or cells: CHO cells, crude membranes
Where no end group is shown, it is not given here.
Readout Name: IC50 (nM)
Respond with the bare value in nM.

Return IC50 measured with rat VPAC1 receptor (Rattus norvegicus, UniProt P30083) given this substance: H-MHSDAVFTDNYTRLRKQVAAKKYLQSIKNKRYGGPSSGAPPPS [Agonist P104]
1760
